Where these numbers come from: ChEMBL document CHEMBL1148317

Tested on: Plasmodium falciparum
experimental protocol: In vitro antimalarial activity for Plasmodium falciparum
Assay type: functional, organism-based

- compound: "CO[C@H]1O[C@@H](c2ccc(C(=O)O)cc2)C2CC[C@H]3CCCCC31OO2 (stereo partly specified)"
  IC50 [µM]: 0.03
- compound: "CO[C@H]1O[C@@]2(c3ccc(F)cc3)CCC[C@H]3CCCC[C@]31OO2"
  IC50 [µM]: 0.03
- compound: "Clc1ccc2c(NCCNC3CCC4(CC3)OOC3(O4)C4CC5CC(C4)CC3C5)ccnc2c1 (stereo unspecified)"
  IC50 [µM]: 0.0025
- compound: "Fc1ccc(C2=C[C@H]3OC4(CCCC4)OO[C@@]3(c3ccc(F)cc3)C2)cc1"
  IC50 [µM]: 0.004
- compound: "C1CCCCCC2(CCCCC1)OOCCCOO2"
  IC50 [µM]: 0.025
- compound: "CC1(OCc2ccccc2)CCC2C[C@@H]1OO[C@]2(C)CS(=O)(=O)c1ccccc1 (stereo partly specified)"
  IC50 [µM]: 0.0094

----------
experimental protocol: Half life of compound was determined
Type: ADME

- chemical string: "C[C@H]1[C@H](OCc2ccc(C(=O)[O-])cc2)O[C@@H]2O[C@]3(C)CCC[C@H]4[C@H](C)CC[C@@H]1[C@@]24OO3.[Na+]"
  half-life: "3 h"
